- Tested on: glucose 6-phosphate dehydrogenase
- assay comment: Stabilization of glucose 6-phosphate dehydrogenase in a reagent for measuring the activity of creatine kinase (residual activity after storage)
- Type: biochemical
- protocol conditions: 10 mM additive in reagent solution 1 (pH 6.6), stored at 10° C. for 3 months; activity immediately after preparation = 100%
Measured Residual activity after 3 months (%), listed per entry for reference.

{"molecule": "Cl.NOCc1ccccc1 [Compound I-5, O-benzylhydroxylamine hydrochloride]", "unit info": "%", "Residual activity after 3 months (%)": 96.8}
{"molecule": "Cc1ccccc1N(O)C(=O)c1ccccc1 [Compound I-7]", "unit info": "%", "Residual activity after 3 months (%)": 81.5}
{"molecule": "COC(=O)NN [II-8, methyl carbazate]", "unit info": "%", "Residual activity after 3 months (%)": 99.8}
{"molecule": "Cl.NOCC(=O)O [Compound I-4, carboxymethoxylamine hydrochloride]", "unit info": "%", "Residual activity after 3 months (%)": 99.9}
{"molecule": "Cl.NO [Compound I-1, hydroxylamine hydrochloride]", "unit info": "%", "Residual activity after 3 months (%)": 100.2}
{"molecule": "NCCNCCO [IV, 2-(2-aminoethylamino) ethanol]", "unit info": "%", "Residual activity after 3 months (%)": 98.7}
{"molecule": "NNC(=O)c1cc2ccccc2cc1O [II-7, 3-hydroxy-2-naphthoenic acid hydrazide]", "unit info": "%", "Residual activity after 3 months (%)": 89.7}
{"molecule": "CC(C)(C)NO [Compound I-12, N-(tert-butyl)hydroxylamine]", "unit info": "%", "Residual activity after 3 months (%)": 75.5}
{"molecule": "CC(C)NNC(=O)c1ccncc1 [II-15, iproniazide]", "unit info": "%", "Residual activity after 3 months (%)": 65.8}
{"molecule": "CNO [Compound I-9, N-methylhydroxylamine]", "unit info": "%", "Residual activity after 3 months (%)": 100.1}
{"molecule": "NO.O=C(O)C(=O)O [Compound I-3, hydroxylamine oxalate]", "unit info": "%", "Residual activity after 3 months (%)": 98.2}
{"molecule": "CCNC(=S)NN [II-13, 4-ethyl-3-thiosemicarbazide]", "unit info": "%", "Residual activity after 3 months (%)": 90.2}
{"molecule": "Cl.ONC1CCCCC1 [Compound I-13, N-cyclohexylhydroxylamine hydrochloride]", "unit info": "%", "Residual activity after 3 months (%)": 92.1}
